# Test system: S. aureus str. Newman
# EXPERIMENT: Membrane permeability using SYTOX-Green, flow cytometry
# Assay type: cell-based
# EXPERIMENTAL PARAMETERS: 1× MIC, 5 min exposure
Response key: satisfied means % FITC stained bacteria 1 xMIC >= 40%; not satisfied means % FITC stained bacteria 1 xMIC < 40%.

Worked set:
# MOLECULE, EXPERIMENTAL TARGET, GROUP LABEL
records = [
    ("COc1ccc(-c2c(C(F)(F)F)n[nH]c2-c2ccc(O)cc2O)cc1 [DPP-12]", "S. aureus str. Newman", "not satisfied"),
    ("Oc1cc(OCc2ccccc2)ccc1-c1[nH]nc(C(F)(F)F)c1-c1ccccc1 [DPP-4]", "S. aureus str. Newman", "not satisfied"),
    ("CCOc1ccc(-c2[nH]nc(C(F)(F)F)c2-c2ccc(OC)cc2)c(O)c1 [DPP-14]", "S. aureus str. Newman", "satisfied"),
    ("CO[C@@H]1[C@@H](OC(N)=O)[C@@H](O)[C@H](Oc2ccc3c(O)c(NC(=O)c4ccc(O)c(CC=C(C)C)c4)c(=O)oc3c2C)OC1(C)C [Novobiocin, reference compound]", "S. aureus str. Newman", "not satisfied"),
    ("Oc1ccc(-c2n[nH]c(C(F)(F)F)c2-c2ccc(Cl)cc2)c(O)c1 [DPP-5]", "S. aureus str. Newman", "not satisfied"),
    ("COc1ccc(-c2c(C(F)(F)F)n[nH]c2-c2ccc(OC)cc2O)cc1 [DPP-13]", "S. aureus str. Newman", "satisfied"),
    ("FC(F)(F)c1n[nH]c(-c2ccccc2)c1-c1ccc(Cl)cc1 [DPP-21]", "S. aureus str. Newman", "not satisfied"),
]

Now examine the next entry.
Exam item: decide whether the reported % FITC stained bacteria 1 xMIC for COc1ccc(-c2[nH]nc(C(F)(F)F)c2-c2ccccc2)c(O)c1 [DPP-2] is at least 40%.
Marked response: satisfied
